- Tested on: RXF 393 renal
- measurement description: NCI-60 one-dose screen, 48 h (100 = growth as untreated, 0 = no growth, -100 = all killed)
- reported conditions: 10 µM
This is part of a sample that, as a whole, favours compounds with a hit. Of some 83,000 tested, about 20% had one in any assay.
The following compounds are shown together with reported growth values.
property label: growth (%)

> print(dat)
                                   compound  property.label  endpoint.result
1  COc1ccc([C@H]2C(C(=O)c3ccc(Cl)cc3)C3(N[C@@H]2c2ccccc2)C(=O)Nc2ccc(Br)cc23)cc1 (some centres undefined)          growth            -72.9
2  Cc1ccc(-c2nc3ccc(C(=O)N=Nc4c(O)[nH]c5ccc([N+](=O)[O-])cc45)cc3[nH]2)cc1          growth             83.5
3   CN(CCF)c1ccc(/C=C/C(=O)c2ccc(N)cc2O)cc1          growth             82.8
4  Cc1ccc(-c2nc3ccc(C(=O)N=Nc4c(O)[nH]c5ccc(Br)cc45)cc3[nH]2)cc1          growth             66.1
5  C=C1CCC2C3(C)COC(c4cc(F)cc(F)c4)OC3CCC2(C)C1C/C=C1/C(=O)OCC1O (centres undefined)          growth            -73.7
6  Nc1nnc(-c2c[nH]c3ccc(F)cc23)c(-c2c[nH]c3ncccc23)n1          growth             82.8
7  CC(=O)c1ccc(NC(=O)NCn2c(=O)[nH]c3ccccc3c2=O)cc1          growth             97.4
8  CN1CCN(c2ccc(Nc3nc(NCCNC(=O)c4ccc(C(F)(F)F)cc4)c4sccc4n3)cc2)CC1          growth            -82.2
9  O=c1[nH]n(C(=S)N/N=C/c2ccc(F)cc2)c(=O)c2ccccc12          growth             57.3
